B1: TRIM55 (parent)
chain: ICPICLEMFTKPVVILPCQHNLCR

# Variants of: B1
# test-details: protein stability index of a GFP-peptide fusion (GPS, HEK-293T) (PSI 1-6); higher = more stable;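 further: lentivirally expressed fusions sorted by FACS into six bins by GFP to DsRed ratio, PSI derived from sequencing read proportions per bin multiplied by bin number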
# protocol-conditions: c terminus: a fixed tail appended
endpoint-name: protein stability index

In [3]: df
Out[3]:
    variant_code            endpoint_name  obs_value
 0          C23N  protein stability index       2.13
 1          R24L  protein stability index       2.11
 2           F9L  protein stability index       2.47
 3          L22S  protein stability index        2.4
 4          H20C  protein stability index       2.23
 5           C2I  protein stability index       1.56
 6          V14H  protein stability index       2.82
 7           I1N  protein stability index       2.55
 8           L6E  protein stability index       3.49
 9           F9N  protein stability index       2.75
10          L22P  protein stability index       2.29
11           F9V  protein stability index       2.86
12          V13Q  protein stability index       3.49
13          R24W  protein stability index       2.35
14          H20Q  protein stability index        2.2
15          R24V  protein stability index       1.83
16          H20F  protein stability index       2.77
17          R24F  protein stability index       2.01
18          I15P  protein stability index       2.69
19          P17W  protein stability index       2.31
20          K11P  protein stability index       2.35
21           I4W  protein stability index       2.34
22          N21F  protein stability index       2.53
23          K11D  protein stability index       3.28
24          C23F  protein stability index       1.73
25          H20K  protein stability index       1.87
26          Q19N  protein stability index       2.34
27           C5K  protein stability index       3.33
28           L6Q  protein stability index       1.99
29           E7G  protein stability index       2.52
30          C18G  protein stability index       2.26
31          N21W  protein stability index       2.19
32          P17D  protein stability index       2.27
33          P12K  protein stability index        2.5
34          K11N  protein stability index       2.32
35          C18W  protein stability index       1.95
36           F9G  protein stability index       2.52
37          P12Y  protein stability index        1.8
38           I4R  protein stability index       2.87
39          L22C  protein stability index       2.04
40          V13S  protein stability index       2.58
41          L22D  protein stability index       2.64
42          H20M  protein stability index       1.54
43           M8T  protein stability index       2.73
44           L6N  protein stability index       2.94
45          L22Y  protein stability index       2.08
46           M8S  protein stability index       2.59
47          N21P  protein stability index       2.52
48          N21E  protein stability index       2.54
49          V13T  protein stability index       2.62
50           C5G  protein stability index        1.8
51          C18R  protein stability index       1.45
52          T10N  protein stability index       2.73
53           M8D  protein stability index       3.58
54          L22I  protein stability index       2.31
55           M8W  protein stability index       3.09
56          R24D  protein stability index       2.27
57           I1Y  protein stability index       1.92
58          P17Q  protein stability index          2

All figures here come from the supplement of paper PMC10567573.
